All figures here come from patent US20210061891A1.

Give measured percent of binding to the natural peptide (AUC) for each item. Keep answers brief.
testedSystem: T1, residue mutated to A: G (also: biotinylated, attachment site not given here)
T1 construct: position from the legend (CFH1114-1121)
T1 peptide: GPPPPIDNADITSFP
protocol: ELISA on streptavidin-immobilized biotinylated 15mer peptides; area under the signal vs antibody concentration curve;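 further: antibody binding to each alanine-substituted peptide expressed relative to binding to the natural peptide, using curve area determined separately for every peptide-antibody pair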
Ends that are not written are not given here.
A number alone suffices; assume %.

# input Using the record for Ab7960/293i (antibody, V domains shown, Recombinant human mAb) VH: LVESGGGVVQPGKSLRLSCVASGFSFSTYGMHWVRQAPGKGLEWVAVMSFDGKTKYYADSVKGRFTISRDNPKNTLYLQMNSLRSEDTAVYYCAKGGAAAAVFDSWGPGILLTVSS VL: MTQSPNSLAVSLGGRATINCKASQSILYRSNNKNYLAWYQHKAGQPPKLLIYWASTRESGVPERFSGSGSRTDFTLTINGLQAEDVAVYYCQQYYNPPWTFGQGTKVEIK , report its percent of binding to the natural peptide (AUC).
# output 99

# input Param item: CFH mAb7968 (antibody, V domains shown, also called CBAb1) VH: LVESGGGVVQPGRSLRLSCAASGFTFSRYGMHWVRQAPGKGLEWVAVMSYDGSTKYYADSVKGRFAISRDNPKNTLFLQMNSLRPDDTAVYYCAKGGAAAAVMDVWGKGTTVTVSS VL: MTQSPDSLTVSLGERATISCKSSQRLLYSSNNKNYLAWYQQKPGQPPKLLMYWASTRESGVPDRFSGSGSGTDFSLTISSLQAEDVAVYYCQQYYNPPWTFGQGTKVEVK
# output 100

# input Param item: Ab7957/293i (antibody, V domains shown, Recombinant human mAb) VH: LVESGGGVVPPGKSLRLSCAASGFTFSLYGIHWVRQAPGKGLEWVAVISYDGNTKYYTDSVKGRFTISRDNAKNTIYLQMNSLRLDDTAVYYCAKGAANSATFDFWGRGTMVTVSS VL: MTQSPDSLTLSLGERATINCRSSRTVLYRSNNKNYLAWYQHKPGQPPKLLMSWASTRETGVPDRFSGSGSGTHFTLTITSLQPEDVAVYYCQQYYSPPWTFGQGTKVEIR
# output 99
